# tested system: DNA polymerase catalytic subunit (Herpes simplex virus (type 1 / strain 17))
# assay summary: Percentage of monophosphates (MP) in the second step of staggered assay mixture from step 1 was incubated with GMP kinase and crude extract of HSV-1 infected HeLa cells over night; further: test concentration or dose not given here
# Assay type: functional, cell-based
measured attribute: MP

{"molecule": "Nc1ncnc2c1ncn2CC1CC1(CO)CO (configuration not stated)", "tested system": "DNA polymerase catalytic subunit (Herpes simplex virus (type 1 / strain 17))", "measured attribute": "MP", "observed value": "0%"}
{"molecule": "Nc1nc2c(ncn2COC(CO)CO)c(=O)[nH]1", "tested system": "DNA polymerase catalytic subunit (Herpes simplex virus (type 1 / strain 17))", "measured attribute": "MP", "observed value": "3%"}
{"molecule": "Nc1ncnc2c1ncn2C[C@H]1C[C@H]1CO", "tested system": "DNA polymerase catalytic subunit (Herpes simplex virus (type 1 / strain 17))", "measured attribute": "MP", "observed value": "0%"}
{"molecule": "Nc1nc(O)c2ncn(C/C=C/CO)c2n1", "tested system": "DNA polymerase catalytic subunit (Herpes simplex virus (type 1 / strain 17))", "measured attribute": "MP", "observed value": "9%"}
{"molecule": "Nc1nc(O)c2ncn(C[C@H]3C[C@H]3CO)c2n1", "tested system": "DNA polymerase catalytic subunit (Herpes simplex virus (type 1 / strain 17))", "measured attribute": "MP", "observed value": "0%"}
{"molecule": "Nc1nc(O)c2ncn(CCC(CO)CO)c2n1", "tested system": "DNA polymerase catalytic subunit (Herpes simplex virus (type 1 / strain 17))", "measured attribute": "MP", "observed value": "3%"}
{"molecule": "Nc1nc(O)c2ncn(CC=C(CO)CO)c2n1", "tested system": "DNA polymerase catalytic subunit (Herpes simplex virus (type 1 / strain 17))", "measured attribute": "MP", "observed value": "0%"}
{"molecule": "Cc1cn(C[C@H]2C[C@H]2CO)c(=O)[nH]c1=O", "tested system": "DNA polymerase catalytic subunit (Herpes simplex virus (type 1 / strain 17))", "measured attribute": "MP", "observed value": "23%"}
{"molecule": "Nc1nc(O)c2ncn(C[C@H]3CC3(CO)CO)c2n1", "tested system": "DNA polymerase catalytic subunit (Herpes simplex virus (type 1 / strain 17))", "measured attribute": "MP", "observed value": "0%"}
{"molecule": "Nc1nc2c(ncn2CCCCO)c(=O)[nH]1", "tested system": "DNA polymerase catalytic subunit (Herpes simplex virus (type 1 / strain 17))", "measured attribute": "MP", "observed value": "0%"}
{"molecule": "Nc1nc(O)c(N=O)c(NC[C@H]2C[C@@H]2CO)n1", "tested system": "DNA polymerase catalytic subunit (Herpes simplex virus (type 1 / strain 17))", "measured attribute": "MP", "observed value": "9%"}
{"molecule": "Nc1nc2c(ncn2COCCO)c(=O)[nH]1", "tested system": "DNA polymerase catalytic subunit (Herpes simplex virus (type 1 / strain 17))", "measured attribute": "MP", "observed value": "3%"}
